Where do the numbers come from? From patent US20260132129A1.

- target.or.test.system: PI3Kα H1047R (T47D cells) (Homo sapiens, UniProt P42336, H1047R)
- Construct: endogenous in cells; host or cells: T47D cells
- Sequence (P42336 whole entry H1047R): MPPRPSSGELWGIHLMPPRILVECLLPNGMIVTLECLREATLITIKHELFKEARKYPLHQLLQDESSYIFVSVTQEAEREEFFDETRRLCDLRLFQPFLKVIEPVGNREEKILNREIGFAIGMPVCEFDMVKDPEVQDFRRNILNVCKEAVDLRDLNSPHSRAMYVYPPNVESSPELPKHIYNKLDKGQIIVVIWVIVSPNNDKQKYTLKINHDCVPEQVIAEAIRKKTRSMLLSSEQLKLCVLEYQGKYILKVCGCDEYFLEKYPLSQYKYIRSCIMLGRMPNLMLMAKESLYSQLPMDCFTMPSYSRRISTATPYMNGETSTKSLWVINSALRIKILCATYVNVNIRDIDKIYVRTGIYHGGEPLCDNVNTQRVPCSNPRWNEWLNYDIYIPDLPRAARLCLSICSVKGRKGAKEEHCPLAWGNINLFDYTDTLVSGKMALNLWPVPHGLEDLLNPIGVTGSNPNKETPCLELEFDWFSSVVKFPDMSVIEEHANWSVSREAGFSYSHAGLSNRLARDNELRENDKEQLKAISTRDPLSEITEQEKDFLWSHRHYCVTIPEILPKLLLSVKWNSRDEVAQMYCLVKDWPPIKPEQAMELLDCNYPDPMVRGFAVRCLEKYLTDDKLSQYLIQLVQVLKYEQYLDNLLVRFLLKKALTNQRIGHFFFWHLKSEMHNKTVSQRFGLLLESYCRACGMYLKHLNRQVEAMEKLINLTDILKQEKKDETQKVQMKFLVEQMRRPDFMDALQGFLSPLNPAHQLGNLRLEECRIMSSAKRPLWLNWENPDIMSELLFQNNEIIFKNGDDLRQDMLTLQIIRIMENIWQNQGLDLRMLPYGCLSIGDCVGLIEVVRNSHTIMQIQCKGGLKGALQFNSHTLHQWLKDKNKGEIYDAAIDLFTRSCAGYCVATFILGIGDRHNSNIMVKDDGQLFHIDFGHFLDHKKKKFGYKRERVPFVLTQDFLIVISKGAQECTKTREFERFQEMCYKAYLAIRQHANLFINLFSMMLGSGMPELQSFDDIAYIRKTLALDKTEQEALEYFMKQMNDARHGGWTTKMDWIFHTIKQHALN
- Sequence (P27986 whole entry partner): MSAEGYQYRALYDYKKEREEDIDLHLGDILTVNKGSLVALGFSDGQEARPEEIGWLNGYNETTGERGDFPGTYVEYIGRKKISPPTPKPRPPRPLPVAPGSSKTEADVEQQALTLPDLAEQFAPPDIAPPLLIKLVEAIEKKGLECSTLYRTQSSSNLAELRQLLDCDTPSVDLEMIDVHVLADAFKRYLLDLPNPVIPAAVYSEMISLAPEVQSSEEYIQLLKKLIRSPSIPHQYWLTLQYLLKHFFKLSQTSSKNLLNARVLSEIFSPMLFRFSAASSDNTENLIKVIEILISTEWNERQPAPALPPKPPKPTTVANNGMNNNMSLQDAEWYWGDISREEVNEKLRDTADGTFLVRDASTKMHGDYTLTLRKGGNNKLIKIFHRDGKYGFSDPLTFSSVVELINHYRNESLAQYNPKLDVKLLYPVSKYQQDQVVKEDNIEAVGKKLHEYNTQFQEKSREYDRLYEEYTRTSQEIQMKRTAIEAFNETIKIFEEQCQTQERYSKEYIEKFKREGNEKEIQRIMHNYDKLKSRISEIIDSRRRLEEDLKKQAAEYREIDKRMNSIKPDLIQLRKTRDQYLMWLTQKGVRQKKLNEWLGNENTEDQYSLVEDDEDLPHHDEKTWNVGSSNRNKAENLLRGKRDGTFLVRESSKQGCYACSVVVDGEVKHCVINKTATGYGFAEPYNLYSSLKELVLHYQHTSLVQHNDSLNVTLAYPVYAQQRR
- test.description: PI3Kα cellular assay: pAKT HTRF in T47D cells after EGF stimulation
- Format: cell-based
- experimental.conditions: T47D cells (PI3Kα H1047R), pAKT S473 HTRF, EGF stimulation
Attribute: IC50

What value of IC50 has been reported for the following compound? Cc1cc([C@@H](C)Nc2ccccc2C(=O)O)c2nc(-c3cccc(F)c3)c(C)c(=O)n2c1 (single isomer, unassigned) [Compound 969]
< 0.1 µM

What value of IC50 has been reported for the following compound? Cc1cc([C@@H](C)Nc2ccccc2C(=O)O)c2nc(N3Cc4ccccc4[C@@H]3C)cc(=O)n2c1 (single isomer, unassigned)
< 0.1 µM

---

- target.or.test.system: PI3Kα H1047R (T47D cells) (Homo sapiens, UniProt P42336, H1047R)
- Construct: endogenous in cells; host or cells: T47D cells
- test.description: PI3Kα cellular assay: pAKT HTRF in T47D cells after EGF stimulation
- Format: cell-based
- experimental.conditions: selectivity T47D (H1047R) over SKBR3 (WT), pAKT HTRF
readout.kind: T47D pAKT S473 HTRF IC50 (H1047R): T47D (H1047R) selectivity over SKBR3 (WT)

Would you please look over these solved cases?
>>> df
                                   molecule                     target_or_test_system              data_value
0  Cc1cc(C(C)Nc2ccccc2S(N)(=O)=O)c2nc(-c3cc(C)c4oc(=O)[nH]c4c3)cc(=O)n2c1 (stereo not shown) [Compound 571]  PI3Kα H1047R (T47D cells) (Homo sapiens, UniProt P42336, H1047R)   C (C denotes ≤5-fold)
1  Cc1cc(C(C)Nc2cc(C#N)ccc2C(=O)O)c2nc(N3CCOCC3)cc(=O)n2c1 (stereo not shown)  PI3Kα H1047R (T47D cells) (Homo sapiens, UniProt P42336, H1047R)   C (C denotes ≤5-fold)
2  Cc1cc([C@H](C)Nc2cccc(F)c2C(=O)O)c2nc(N3CCOCC3)cc(=O)n2c1  PI3Kα H1047R (T47D cells) (Homo sapiens, UniProt P42336, H1047R)   C (C denotes ≤5-fold)
3  Cc1cc(C(C)Nc2ccccc2C(=O)O)c2nc(-c3cc(C)nc(Cl)c3)c(C)c(=O)n2c1 (stereo not shown)  PI3Kα H1047R (T47D cells) (Homo sapiens, UniProt P42336, H1047R)  A (A denotes >20-fold)

Continue with the next molecule.
What value of T47D pAKT S473 HTRF IC50 (H1047R): T47D (H1047R) selectivity over SKBR3 (WT) has been reported for the following molecule? `Cc1cc([C@@H](C)Nc2ccccc2C(=O)O)c2nc(C3CCC(C)(C)CC3)cc(=O)n2c1`
A (A denotes >20-fold)

---

- target.or.test.system: PI3Kα H1047R (T47D cells) (Homo sapiens, UniProt P42336, H1047R)
- Construct: endogenous in cells; host or cells: T47D cells
- test.description: PI3Kα cellular assay: pAKT HTRF in T47D cells after EGF stimulation
- Type: cell-based
- experimental.conditions: T47D cells (PI3Kα H1047R), pAKT S473 HTRF, 1 hr compound, 20 ng/ml EGF 10 min
Attribute: IC50

Would you please look over these solved cases?
>>> print(df.to_string())
                                   compound  readout_kind      data_value
0  Cc1cc([C@H](C)Nc2ccnnc2C(=O)O)c2nc(N3CCOCC3)cc(=O)n2c1          IC50       > 2000 nM
1  Cc1cc([C@@H](C)Nc2ccccc2C(=O)O)c2nc(N3CC[Si](C)(C)CC3)cc(=O)n2c1 [Compound 446]          IC50       > 2000 nM
2  Cc1cc([C@H](C)Nc2ccccc2C(N)=O)c2nc(-c3ccncc3)cc(=O)n2c1 (single isomer, unassigned)          IC50  500 to 2000 nM

Continue with the next compound.
What value of IC50 has been reported for the following compound? Cc1cc(C(C)Nc2ccccc2C(=O)O)c2nc(N3CCSCC3)cc(=O)n2c1 (stereo not shown) [Compound 239]
> 2000 nM
